Give IC50 for every item shown.
test_target: PI3Kβ (Homo sapiens (Human), UniProt P42338)
Sequence (P42338 whole entry, canonical isoform): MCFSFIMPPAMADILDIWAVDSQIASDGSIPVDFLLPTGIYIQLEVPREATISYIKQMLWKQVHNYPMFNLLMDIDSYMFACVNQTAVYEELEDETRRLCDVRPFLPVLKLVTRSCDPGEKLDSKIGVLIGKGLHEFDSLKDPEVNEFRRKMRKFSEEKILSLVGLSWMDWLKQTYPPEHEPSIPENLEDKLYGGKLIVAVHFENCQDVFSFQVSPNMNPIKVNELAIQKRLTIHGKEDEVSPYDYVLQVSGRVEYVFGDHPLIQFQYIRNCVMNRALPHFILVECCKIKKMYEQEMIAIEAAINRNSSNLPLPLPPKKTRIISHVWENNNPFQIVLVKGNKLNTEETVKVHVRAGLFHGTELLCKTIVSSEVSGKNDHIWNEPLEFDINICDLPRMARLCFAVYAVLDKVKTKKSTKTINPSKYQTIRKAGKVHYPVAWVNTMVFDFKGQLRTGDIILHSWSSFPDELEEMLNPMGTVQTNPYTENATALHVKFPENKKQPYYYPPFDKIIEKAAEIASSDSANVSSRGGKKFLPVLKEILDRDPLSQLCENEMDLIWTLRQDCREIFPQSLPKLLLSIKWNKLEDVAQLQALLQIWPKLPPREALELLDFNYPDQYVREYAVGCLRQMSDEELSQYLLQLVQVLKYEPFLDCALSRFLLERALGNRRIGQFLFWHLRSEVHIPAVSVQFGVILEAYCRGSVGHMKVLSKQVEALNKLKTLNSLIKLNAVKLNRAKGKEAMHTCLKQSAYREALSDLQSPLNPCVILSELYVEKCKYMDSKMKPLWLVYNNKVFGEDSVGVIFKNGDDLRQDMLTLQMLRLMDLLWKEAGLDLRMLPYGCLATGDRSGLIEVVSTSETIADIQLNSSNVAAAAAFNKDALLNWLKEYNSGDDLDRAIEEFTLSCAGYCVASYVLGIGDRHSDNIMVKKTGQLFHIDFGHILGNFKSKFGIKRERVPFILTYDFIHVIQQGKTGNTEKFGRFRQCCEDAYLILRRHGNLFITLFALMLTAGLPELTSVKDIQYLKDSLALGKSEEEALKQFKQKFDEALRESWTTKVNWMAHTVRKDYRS
Sequence (P27986 whole entry partner, canonical isoform): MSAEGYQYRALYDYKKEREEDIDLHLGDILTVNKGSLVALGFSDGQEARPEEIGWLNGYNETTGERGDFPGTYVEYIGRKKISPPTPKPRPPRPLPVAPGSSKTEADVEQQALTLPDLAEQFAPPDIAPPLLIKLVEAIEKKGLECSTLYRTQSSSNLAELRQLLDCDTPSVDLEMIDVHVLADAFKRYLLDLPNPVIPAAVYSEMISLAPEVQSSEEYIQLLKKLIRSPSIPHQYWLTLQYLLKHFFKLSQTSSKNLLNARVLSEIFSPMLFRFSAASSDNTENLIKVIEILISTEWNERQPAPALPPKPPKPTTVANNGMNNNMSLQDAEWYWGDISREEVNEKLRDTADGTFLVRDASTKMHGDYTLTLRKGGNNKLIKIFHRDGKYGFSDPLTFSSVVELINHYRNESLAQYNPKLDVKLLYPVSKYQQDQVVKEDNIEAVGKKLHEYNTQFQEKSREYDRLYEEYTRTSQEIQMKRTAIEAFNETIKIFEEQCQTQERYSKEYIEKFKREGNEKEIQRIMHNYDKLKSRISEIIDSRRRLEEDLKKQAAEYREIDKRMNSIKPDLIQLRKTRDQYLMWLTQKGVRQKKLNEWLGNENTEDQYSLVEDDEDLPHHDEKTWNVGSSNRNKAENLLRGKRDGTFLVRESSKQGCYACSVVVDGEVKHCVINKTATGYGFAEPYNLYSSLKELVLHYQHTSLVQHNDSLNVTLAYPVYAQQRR
assay_overview: PI3K isoform TR-FRET enzymatic assay (PI3Kβ)
applied_conditions: 2× Km ATP, 30 minutes at 25° C.
Answers are plain numbers, in nM.

molecule | unit_tag | IC50
Cc1nc2c(-c3nnc(Cl)[nH]3)cc(N3CCOCC3)cc2n1-c1ccnc2c(Cl)cccc12 [Example 178] | nM | 12

Fill in IC50 for each of the 3 molecules listed.
1. Cc1nc2c(-c3cnc(Cl)[nH]3)cc(N3CCOCC3)cc2n1-c1ccnc2c(Cl)ccc(F)c12
2. Cc1nc2c(-c3cnc(Cl)[nH]3)cc(N3CCOCC3)cc2n1-c1ccnc2c(F)ccc(F)c12 [Example 298]
3. Clc1cccc2c(-n3c(CC4CC4)nc4c(-c5ncco5)cc(N5CCOCC5)cc43)ccnc12

[out]
5
10
7
